Data credit: patent US20170240595

target: hMC4-R (human), P32245; assay: competition; settings: modification not given
Sequence (P32245 whole entry): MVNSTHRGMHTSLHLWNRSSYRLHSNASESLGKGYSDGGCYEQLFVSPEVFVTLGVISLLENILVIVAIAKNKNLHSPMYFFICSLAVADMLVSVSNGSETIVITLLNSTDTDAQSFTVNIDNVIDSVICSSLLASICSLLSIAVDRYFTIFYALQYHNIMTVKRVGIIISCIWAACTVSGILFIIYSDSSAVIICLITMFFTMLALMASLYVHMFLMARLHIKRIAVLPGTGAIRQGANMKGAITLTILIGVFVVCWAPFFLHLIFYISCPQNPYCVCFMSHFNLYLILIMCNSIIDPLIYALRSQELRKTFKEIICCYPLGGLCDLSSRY
Bridges are numbered along the chain shown (N, C = ends). Where no end group is shown, it is not given here. [ ]: non-standard residue; d: D form. 1Nal = N[C@@H](Cc1cccc2ccccc12)C(=O)O; 2Nal = N[C@@H](Cc1ccc2ccccc2c1)C(=O)O; d2Nal = N[C@H](Cc1ccc2ccccc2c1)C(=O)O; Cha = N[C@@H](CC1CCCCC1)C(=O)O; Nle = CCCC[C@H](N)C(=O)O; Apn = not defined here; Bal = not defined here; Ahx = NCCCCCC(=O)O; GABA = NCCCC(=O)O; βAla = NCCC(=O)O
MEASURED_ENDPOINT: Ki (nM)
One number for each entry, in nM.

Ac-[Nle]CH[d2Nal]RW[GABA]C-NH2 (disulfide 2-8) [Ac-Nle-c(Cys-His-D-2-Nal-Arg-Trp-Gaba-Cys)-NH2]
0.375
[Nle]CH[dF]RW[Apn]C-NH2 (disulfide 2-8; reading uncertain) [Nle-c(Cys-His-D-Phe-Arg-Trp-Apn-Cys)-NH2]
0.85
Ac-[Nle]CH[dF]RW[Ahx]C-NH2 (disulfide 2-8; SMILES CCCC[C@H](NC(C)=O)C(=O)N[C@H]1CSSC[C@@H](C(N)=O)NC(=O)CCCCCNC(=O)[C@H](Cc2c[nH]c3ccccc23)NC(=O)[C@H](CCCNC(=N)N)NC(=O)[C@@H](Cc2ccccc2)NC(=O)[C@H](Cc2c[nH]cn2)NC1=O) [Ac-Nle-c(Cys-His-D-Phe-Arg-Trp-Ahx-Cys)-NH2]
1.23
Ac-[Nle]C[dL]H[dF]RWC-NH2 (disulfide 2-8; SMILES CCCC[C@H](NC(C)=O)C(=O)N[C@H]1CSSC[C@@H](C(N)=O)NC(=O)[C@H](Cc2c[nH]c3ccccc23)NC(=O)[C@H](CCCNC(=N)N)NC(=O)[C@@H](Cc2ccccc2)NC(=O)[C@H](Cc2c[nH]cn2)NC(=O)[C@@H](CC(C)C)NC1=O) [Ac-Nle-c(Cys-D-Leu-His-D-Phe-Arg-Trp-Cys)-NH2]
4.13
Ac-[Nle]C[dA]H[d2Nal]R[2Nal]C-NH2 (disulfide 2-8; SMILES CCCC[C@H](NC(C)=O)C(=O)N[C@H]1CSSC[C@@H](C(N)=O)NC(=O)[C@H](Cc2ccc3ccccc3c2)NC(=O)[C@H](CCCNC(=N)N)NC(=O)[C@@H](Cc2ccc3ccccc3c2)NC(=O)[C@H](Cc2c[nH]cn2)NC(=O)[C@@H](C)NC1=O) [Ac-Nle-c(Cys-D-Ala-His-D-2-Nal-Arg-2-Nal-Cys)-NH2]
2.53
Ac-[Nle]C[dI]H[dF]RWC-NH2 (disulfide 2-8) [Ac-Nle-c(Cys-D-Ile-His-D-Phe-Arg-Trp-Cys)-NH2]
9
Ac-[Cha]CH[dF]RW[GABA]C-NH2 (disulfide 2-8; SMILES CC(=O)N[C@@H](CC1CCCCC1)C(=O)N[C@H]1CSSC[C@@H](C(N)=O)NC(=O)CCCNC(=O)[C@H](Cc2c[nH]c3ccccc23)NC(=O)[C@H](CCCNC(=N)N)NC(=O)[C@@H](Cc2ccccc2)NC(=O)[C@H](Cc2c[nH]cn2)NC1=O) [Ac-Cha-c(Cys-His-D-Phe-Arg-Trp-Gaba-Cys)-NH2]
0.884
Ac-[Nle]DH[dF]RW[βAla]K-NH2 (lactam 2-8; SMILES CCCC[C@H](NC(C)=O)C(=O)N[C@H]1CC(=O)NCCCC[C@@H](C(N)=O)NC(=O)CCNC(=O)[C@H](Cc2c[nH]c3ccccc23)NC(=O)[C@H](CCCNC(=N)N)NC(=O)[C@@H](Cc2ccccc2)NC(=O)[C@H](Cc2c[nH]cn2)NC1=O) [Ac-Nle-c(Asp-His-D-Phe-Arg-Trp-β-Ala-Lys)-NH2]
0.617
Ac-[Nle]DH[dF]RW[Apn]K-NH2 (lactam 2-8; reading uncertain) [Ac-Nle-c(Asp-His-D-Phe-Arg-Trp-Apn-Lys)-NH2]
11.1
Ac-[Nle]DH[dF]RW[GABA]K-NH2 (lactam 2-8) [Ac-Nle-c(Asp-His-D-Phe-Arg-Trp-Gaba-Lys)-NH2]
1.04

Each binder below has a reported value. Please supply its Ki.
1. Ac-[Cha]DH[d2Nal]RW[GABA]K-NH2 (lactam 2-8; SMILES CC(=O)N[C@@H](CC1CCCCC1)C(=O)N[C@H]1CC(=O)NCCCC[C@@H](C(N)=O)NC(=O)CCCNC(=O)[C@H](Cc2c[nH]c3ccccc23)NC(=O)[C@H](CCCNC(=N)N)NC(=O)[C@@H](Cc2ccc3ccccc3c2)NC(=O)[C@H](Cc2c[nH]cn2)NC1=O) [Ac-Cha-c(Asp-His-D-2-Nal-Arg-Trp-Gaba-Lys)-NH2]
2. Ac-[Nle]C[dA]H[d2Nal]R[1Nal]C-NH2 (disulfide 2-8; SMILES CCCC[C@H](NC(C)=O)C(=O)N[C@H]1CSSC[C@@H](C(N)=O)NC(=O)[C@H](Cc2cccc3ccccc23)NC(=O)[C@H](CCCNC(=N)N)NC(=O)[C@@H](Cc2ccc3ccccc3c2)NC(=O)[C@H](Cc2c[nH]cn2)NC(=O)[C@@H](C)NC1=O) [Ac-Nle-c(Cys-D-Ala-His-D-2-Nal-Arg-1-Nal-Cys)-NH2]
3. Ac-[Nle]C[dV]H[dF]RWC-NH2 (disulfide 2-8) [Ac-Nle-c(Cys-D-Val-His-D-Phe-Arg-Trp-Cys)-NH2]
4. Ac-[Nle]C[dA]H[d2Nal]R[Bal]C-NH2 (disulfide 2-8; reading uncertain) [Ac-Nle-c(Cys-D-Ala-His-D-2-Nal-Arg-Bal-Cys)-NH2]

[2.82, 3.07, 10.1, 16.6]
